- Tested on: MDA-MB-435
- Assay remarks: NCI tumour cell line growth inhibition, 48 h
Recorded endpoint: TGI (µM)
Give the value in µM but do not write µM after it.

Illustrative cases are given below, each with its answer.
{"Compound": "Cn1cc(-c2csc(-c3cn(C)c4ncccc34)n2)c2ccccc21", "TGI (µM)": 0.186}
{"Compound": "COc1ccc2c(c1)C(=O)/C(=C/c1ccc(OCC(=O)c3ccc(Cl)cc3)cc1)O2", "TGI (µM)": 91.8}
{"Compound": "CCC/C(Cl)=N/OC(=O)Nc1cccc(F)c1", "TGI (µM)": 24.8}

API: the following record is the query input.
Inquiry: Name the recorded TGI for COc1cc2c(cc1OCCCN1CCN(CCCOc3cc4c(cc3OC)C(=O)C3CCC[C@H]3C=N4)CC1)N=C[C@@H]1CCCC1C2=O (some centres undefined) .
Reply text: 30.3

###

- System: OVCAR-8 ovarian
- Assay remarks: NCI tumour cell line growth inhibition, 48 h
Recorded endpoint: GI50

Illustrative cases are given below, each with its answer.
{"Smiles str": "Cc1nc(N=C(N)N)nc2ccc3ccccc3c12", "Recorded endpoint": "GI50", "Endpoint result": "0.811 µM"}
{"Smiles str": "COc1ccc2c(c1)C(=O)/C(=C/c1ccc(OCC(=O)c3ccc(Cl)cc3)cc1)O2", "Recorded endpoint": "GI50", "Endpoint result": "42.4 µM"}

API: the following record is the query input.
Inquiry: Request body: readout GI50, system OVCAR-8 ovarian, query Cn1cc(-c2csc(-c3cn(C)c4ncccc34)n2)c2ccccc21 . Return the value.
Reply text: 0.666 µM

###

- Tested on: RPMI-8226 leukemia
- Assay remarks: NCI tumour cell line growth inhibition, 48 h; in the data active means GI50 below about 0.43 µM; inactive means the rest
// allowed return values: True (active), False (inactive)

{"Compound": "COc1ccc2c(c1)C(=O)/C(=C/c1ccc(OCC(=O)c3ccc(Cl)cc3)cc1)O2", "Label": "False"}
{"Compound": "CCN(CC)c1ccc(/C=C/C2=[N+](C)c3ccccc3C2(C)C)cc1", "Label": "True"}
{"Compound": "CC[C@]12C=CCN3CC[C@]4(C(=C(C(=O)OC)C1)Nc1ccccc14)[C@@H]32", "Label": "False"}
{"Compound": "Nc1nccc(C#Cc2cncnc2Nc2ccc(OCc3cccc(F)c3)c(Cl)c2)n1", "Label": "False"}
{"Compound": "CC[n+]1c(/C=C/c2ccc(N(CCCl)CCCl)cc2)ccc2cc(Br)ccc21", "Label": "False"}
{"Compound": "Cn1cc(-c2ccc3c(c2)ncn3-c2ccc(CC(=O)Nc3cc(C(C)(C)C)on3)cc2)cn1", "Label": "False"}
{"Compound": "Oc1ccc(-c2nc(-c3ccc(F)cc3)c(-c3ccncc3)[nH]2)cc1", "Label": "False"}
{"Compound": "COc1cccc(C2C3=C(COC3=O)N(CCO)c3cc4c(cc32)CCC4)c1 (configuration not stated)", "Label": "True"}
{"Compound": "OCCC#Cc1ccccc1C#Cc1ccccc1", "Label": "False"}
{"Compound": "C/C=C(\\C)C(=O)O[C@@H]1C=CC(=O)O[C@H]1COC(=O)[C@H](C)O", "Label": "False"}

Inquiry: Give the logged outcome of this assay for the following compound: CC1(C)CCC(CN2CCN(c3ccc(C(=O)NS(=O)(=O)c4ccc(NCC5CCOCC5)c([N+](=O)[O-])c4)c(Oc4cnc5[nH]ccc5c4)c3)CC2)=C(c2ccc(Cl)cc2)C1
Reply text: False

Inquiry: Give the logged outcome of this assay for the following compound: N=C(N)c1ccc(-c2ccc(-c3ccccc3)o2)cc1
Reply text: False

###

- Test system: A549 NSCLC
- Assay remarks: NCI tumour cell line growth inhibition, 48 h; in the data active means GI50 below about 0.43 µM; inactive means the rest
// allowed return values: label 1 = active, label 0 = inactive

Example entries begin here.
{"Molecule": "N=C(N)c1ccc(-c2ccc(-c3ccccc3)o2)cc1", "Label": "label 0"}
{"Molecule": "CC[n+]1c(/C=C/c2ccc(N(CCCl)CCCl)cc2)ccc2cc(Br)ccc21", "Label": "label 0"}
{"Molecule": "CN(C)c1ccc(N=C(C#N)c2nc(N)nc(N3CCOCC3)n2)cc1", "Label": "label 0"}
{"Molecule": "Cc1nc(N=C(N)N)nc2ccc3ccccc3c12", "Label": "label 0"}
{"Molecule": "O=C(/C=C/c1cccnc1)/C=C/c1cccnc1", "Label": "label 0"}
{"Molecule": "O=[N+]([O-])c1ccc([I+]c2ccccc2)cc1", "Label": "label 0"}
{"Molecule": "CCN1C(=O)N(CC)C2C1NN=c1s/c(=C\\c3ccc([N+](=O)[O-])cc3)c(=O)n12 (stereo not drawn)", "Label": "label 0"}
{"Molecule": "COc1ccc(C2=NN(c3ccc(S(N)(=O)=O)cc3)C(c3ccc(Cl)cc3)C2)c(O)c1 (stereo not drawn)", "Label": "label 0"}
{"Molecule": "C=C(CNCCc1ccc(O)cc1)[C@@H]1CC[C@]2(CO)CC[C@]3(C)[C@H](CC[C@@H]4[C@@]5(C)CCC(NCCO)C(C)(C)[C@@H]5CC[C@]43C)[C@@H]12 (stereo partly drawn)", "Label": "label 0"}
{"Molecule": "C[CH2][Sn]([CH2]C)([O]C(=O)c1cc(OC)c(OC)c(OC)c1)[O][Sn]([CH2]C)([CH2]C)[O]C(=O)c1cc(OC)c(OC)c(OC)c1", "Label": "label 0"}

Inquiry: Give the logged outcome of this assay for the following molecule: C/C=C(\C)C(=O)O[C@@H]1C=CC(=O)O[C@H]1COC(=O)[C@H](C)O
Reply text: label 0

Inquiry: Give the logged outcome of this assay for the following molecule: C[C@@H](Oc1cc(-n2cnc3ccc(OCC4CCN(C)CC4)cc32)sc1C(N)=O)c1ccccc1C(F)(F)F
Reply text: label 1

Inquiry: Give the logged outcome of this assay for the following molecule: Cn1cc(-c2csc(-c3cn(C)c4ncccc34)n2)c2ccccc21
Reply text: label 0

###

- Tested on: M19-MEL melanoma
- Assay remarks: NCI tumour cell line growth inhibition, 48 h
Recorded endpoint: TGI

Illustrative cases are given below, each with its answer.
{"Compound": "CC1(C)CC(C2CC(C)(C)CC(C)(C)[C@H]2O)[C@@H](O)C(C)(C)C1 (some centres undefined)", "Measured target": "M19-MEL melanoma", "TGI": "> 100 µM"}
{"Compound": "O=c1[nH]cnc2c1nnn2C1C=C(CO)C(O)C1O (centres undefined)", "Measured target": "M19-MEL melanoma", "TGI": "> 100 µM"}
{"Compound": "Nc1ncn([C@@H]2C=C(CO)C(O)C2O)c(=O)n1 (some centres undefined)", "Measured target": "M19-MEL melanoma", "TGI": "> 100 µM"}
{"Compound": "CCOC(=O)C12CN(C34CC5CC(CC(C5)C3)C4)CC(C(=O)OCC)(C1=O)C(c1ccccc1)OC2c1ccccc1 (centres undefined)", "Measured target": "M19-MEL melanoma", "TGI": "> 100 µM"}

API: the following record is the query input.
Inquiry: Request body: readout TGI, system M19-MEL melanoma, query COc1ccc(C2C(Cl)C(=O)N2NC(=O)c2ccc(NC(C)=O)cc2)cc1OC (centres undefined) . Return the value.
Reply text: > 100 µM

###

- Tested on: HCT-15 colon
- Assay remarks: NCI tumour cell line growth inhibition, 48 h
Recorded endpoint: TGI

Inquiry: Name the recorded TGI for O=C1C2=Cc3ccccc3CCN2c2ccc([N+](=O)[O-])cc21 .
Reply text: > 100 µM

Inquiry: Name the recorded TGI for O=C1NCC2=C1CCC1c3ccccc3CCN21 (centres undefined) .
Reply text: > 100 µM

Inquiry: Name the recorded TGI for C[C@@H](Oc1cc(-n2cnc3ccc(OCC4CCN(C)CC4)cc32)sc1C(N)=O)c1ccccc1C(F)(F)F .
Reply text: 3.2 µM

Inquiry: Name the recorded TGI for CC(C)Cn1cnnc1NS(=O)(=O)c1cc(C(=O)NN)c(Cl)cc1S .
Reply text: > 10 µM

Inquiry: Name the recorded TGI for COc1cc([C@@H]2c3cc4c(cc3[C@@H](N=Cc3ccc(C(=O)O[C@H]5C[C@H]6OC[C@@]6(OC(C)=O)[C@H]6[C@H](OC(=O)c7ccccc7)[C@]7(O)C[C@H](OC(=O)[C@H](OC(=O)c8ccc(C=N[C@@H]9c%10cc%11c(cc%10[C@@H](c%10cc(OC)c(O)c(OC)c%10)[C@H]%10C(=O)OC[C@@H]%109)OCO%11)cc8)[C@@H](NC(=O)c8ccccc8)c8ccccc8)C(C)=C([C@@H](OC(C)=O)C(=O)[C@]56C)C7(C)C)cc3)C3COC(=O)C32)OCO4)cc(C)c1O (some centres undefined) .
Reply text: > 50 µM

Inquiry: Name the recorded TGI for O=C1c2cc([N+](=O)[O-])cnc2S(=O)(=O)N1c1ccc(Oc2ccccc2)cc1 .
Reply text: > 100 µM

Inquiry: Name the recorded TGI for N=C1SCCS1 .
Reply text: > 100 µM

Inquiry: Name the recorded TGI for COc1cc2c(cc1OCCCN1CCN(CCCOc3cc4c(cc3OC)C(=O)C3CCC[C@H]3C=N4)CC1)N=C[C@@H]1CCCC1C2=O (some centres undefined) .
Reply text: > 100 µM

Inquiry: Name the recorded TGI for C/C(O)=C/c1nc2sc(C)c(C)c2c(=O)s1 .
Reply text: > 100 µM
